# pIC50 per record follows
# ASSAY SYSTEM: Human PD-L1/PD-1 (Homo sapiens)
# Construct: TVMV protease cleavage site (C); made in house; host or cells: HEK293T cells
# Sequence (Q9NZQ7 with tags, fused parts or gaps): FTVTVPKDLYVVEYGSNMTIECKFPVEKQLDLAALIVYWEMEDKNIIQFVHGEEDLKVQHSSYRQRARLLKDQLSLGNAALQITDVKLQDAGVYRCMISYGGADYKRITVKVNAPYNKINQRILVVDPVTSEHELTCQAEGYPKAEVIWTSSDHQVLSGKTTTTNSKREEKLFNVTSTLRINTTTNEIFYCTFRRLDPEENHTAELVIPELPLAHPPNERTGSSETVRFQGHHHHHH
# MEASUREMENT NOTES: HTRF Human PD-L1/PD-1 binding assay (PD-1-Ig/PD-L1-His)
# APPLIED CONDITIONS: PD-L1-His 10 nM, PD-1-Ig 20 nM; class symbol; read-out: HTRF Human PD-L1/PD-1 Binding Assay IC50 Range
# From the text: Methods for Testing the Ability of Macrocyclic Peptides to Compete for the Binding of PD-1 to PD-L1 Using Homogenous Time-Resolved Fluorescence (HTRF) Binding Assays The ability of the macrocyclic peptides of the present disclosure to bind to PD-L1 was investigated using a PD-1/PD-L1 Homogenous Time-Resolved Fluorescence (HTRF) binding assay. Homogenous Time-Resolved Fluorescence (HTRF) Assays of Binding of Soluble PD-1 to Soluble PD-L1. […]
pIC50: −log10 of the molar value. Where a SMILES comes first, the peptide text is derived from it. Bridges are numbered along the chain shown (N, C = ends). [ ]: non-standard residue; d: D form. ξ: configuration not given here. Bta = N[C@@H](Cc1csc2ccccc12)C(=O)O; Hyp = O=C(O)[C@@H]1C[C@@H](O)CN1; NMeNle = CCCC[C@H](NC)C(=O)O; hSer = N[C@@H](CCO)C(=O)O; NMeA = CN[C@@H](C)C(=O)O; Orn = NCCC[C@H](N)C(=O)O; Dab = NCC[C@H](N)C(=O)O; ξC = NC(CS)C(=O)O; Sar = CNCC(=O)O

Here's what some known entries look like.
CCCC[C@H]1C(=O)N[C@@H](CC(N)=O)C(=O)N2CCC[C@H]2C(=O)N[C@@H](CO)C(=O)N[C@@H](CCO)C(=O)N2CCC[C@H]2C(=O)N[C@@H](Cc2c[nH]c3ccccc23)C(=O)N[C@@H](CCO)C(=O)N[C@@H](Cc2c[nH]c3ccccc23)C(=O)N(C)[C@@H](C)C(=O)N(C)[C@@H](C)C(=O)N[C@@H](CCCN)C(=O)NC(C(=O)NCC(N)=O)CSCC(=O)N[C@@H](Cc2ccc(O)cc2)C(=O)N1C (stereo partly shown) [Example 10216] ({CH2CO}-Y[NMeNle]NPS[hSer]PW[hSer]W[NMeA][NMeA][Orn][ξC]G-NH2; thioether N-14) = 5.00 to 6.00
CCCC[C@H]1C(=O)N[C@@H](CC(N)=O)C(=O)N2CCC[C@H]2C(=O)N[C@@H](CO)C(=O)N[C@@H](CCO)C(=O)N2CCC[C@H]2C(=O)N[C@@H](Cc2c[nH]c3ccccc23)C(=O)N[C@@H](CCCN)C(=O)N[C@@H](Cc2c[nH]c3ccccc23)C(=O)N(C)[C@@H](C)C(=O)N(C)[C@@H](C)C(=O)N[C@@H](CCCNC(=N)N)C(=O)NC(C(=O)NCC(N)=O)CSCC(=O)N[C@@H](Cc2ccc(O)cc2)C(=O)N1C (stereo partly shown) [Example 10198] ({CH2CO}-Y[NMeNle]NPS[hSer]PW[Orn]W[NMeA][NMeA]R[ξC]G-NH2; thioether N-14) = 5.00 to 6.00
CCCC[C@H]1C(=O)N(C)[C@@H](CCCC)C(=O)N[C@@H](C)C(=O)NC(C(=O)NCC(N)=O)CSCC(=O)N[C@@H](Cc2ccc(O)cc2)C(=O)N(C)[C@@H](C)C(=O)N[C@@H](CC(N)=O)C(=O)N2CCC[C@H]2C(=O)N[C@@H](CC(N)=O)C(=O)N[C@@H](CC(C)C)C(=O)N2C[C@H](O)C[C@H]2C(=O)N[C@@H](Cc2c[nH]c3ccccc23)C(=O)N[C@@H](CO)C(=O)N[C@@H](Cc2csc3ccccc23)C(=O)N1C (stereo partly shown) [Example 9135] ({CH2CO}-Y[NMeA]NPNL[Hyp]WS[Bta][NMeNle][NMeNle]A[ξC]G-NH2; thioether N-14) = 8.00 to 9.00

With those in mind, consider the next molecule.
**Query** Need pIC50 of CCCC[C@H]1C(=O)N[C@@H](CC(N)=O)C(=O)N2CCC[C@H]2C(=O)N[C@@H](CO)C(=O)N[C@@H](CCO)C(=O)N2C[C@H](O)C[C@H]2C(=O)N[C@@H](Cc2c[nH]c3ccccc23)C(=O)N[C@@H](CCN)C(=O)N[C@@H](Cc2c[nH]c3ccccc23)C(=O)N(C)[C@@H](C)C(=O)N(C)CC(=O)N[C@@H](CCCNC(=N)N)C(=O)NC(C(=O)NCC(N)=O)CSCC(=O)N[C@@H](Cc2ccc(O)cc2)C(=O)N1C (stereo partly shown) [Example 10206] ({CH2CO}-Y[NMeNle]NPS[hSer][Hyp]W[Dab]W[NMeA][Sar]R[ξC]G-NH2; thioether N-14) , thanks.
**Result** 5.00 to 6.00
